Test system: KB cells
Assay: In vitro KB cell cytotoxicity assay (crystal violet)
Assay type: cell-based
Conditions: Homo sapiens, 72 h, 3 days culture, read-out: KB Cell Cytotoxicity TD50
Where a name gives a salt, the structure may show the parent alone.
Readout: IC50

{"Compound": "N[C@H](CCC(=O)OC[C@H]1CN2C(=O)C[C@@H]2O1)C(=O)O (mixture of isomers) [Example 68B]", "Recorded value": "0.189 µg/mL"}
{"Compound": "N[C@@H](CC(=O)O)C(=O)NCC1CN2C(=O)CC2O1 (some centres unmarked) [Example 67B]", "Recorded value": "6.04 µg/mL"}
{"Compound": "CC(=O)NC[C@@H]1CN2C(=O)C[C@H]2O1 (racemic) [Example 1]", "Recorded value": "0.263 µg/mL"}
{"Compound": "O=C(O)CCC(=O)NC[C@H]1CN2C(=O)C[C@@H]2O1 (relative stereo)", "Recorded value": "2.85 µg/mL"}
{"Compound": "CC(C)C(=O)NC[C@@H]1CN2C(=O)C[C@H]2O1 (racemic)", "Recorded value": "0.181 µg/mL"}
{"Compound": "Cl.NCC(=O)OC[C@H]1CN2C(=O)C[C@@H]2O1 (racemic)", "Recorded value": "0.613 µg/mL"}
{"Compound": "O=C(NC[C@@H]1CN2C(=O)C[C@H]2O1)NC[C@@H]1CN2C(=O)C[C@H]2O1 (racemic)", "Recorded value": "0.151 µg/mL"}
{"Compound": "O=C(NC[C@@H]1CN2C(=O)C[C@H]2O1)c1cccnc1 (racemic)", "Recorded value": "0.78 µg/mL"}
{"Compound": "CC(C)[C@H](N)C(=O)OC[C@H]1CN2C(=O)C[C@@H]2O1.Cl (mixture of isomers) [Example 54B]", "Recorded value": "1.9 µg/mL"}
{"Compound": "O=C(NC[C@@H]1CN2C(=O)C[C@H]2O1)c1ccccc1 (racemic)", "Recorded value": "0.088 µg/mL"}
{"Compound": "CC(C)[C@H](N)C(=O)N[C@@H](C)C(=O)OCC1CN2C(=O)CC2O1 (some centres unmarked) [Example 49B, hydrochloride]", "Recorded value": "0.537 µg/mL"}
{"Compound": "[N-]=[N+]=NCCCCCC(=O)NC[C@@H]1CN2C(=O)C[C@H]2O1 (racemic)", "Recorded value": "0.254 µg/mL"}
{"Compound": "O=C(NC[C@@H]1CN2C(=O)C[C@H]2O1)c1ccc(F)cc1 (racemic)", "Recorded value": "0.24 µg/mL"}
{"Compound": "O=C(NC[C@@H]1CN2C(=O)C[C@H]2O1)OCc1ccccc1 (racemic)", "Recorded value": "0.34 µg/mL"}
{"Compound": "N[C@@H](CC(=O)O)C(=O)NCC(=O)NCC1CN2C(=O)CC2O1 (some centres unmarked) [Example 46B]", "Recorded value": "2.63 µg/mL"}
{"Compound": "C[C@@H](NC(=O)OCc1ccccc1)C(=O)N[C@@H](COCc1ccccc1)C(=O)OCC1CN2C(=O)CC2O1 (some centres unmarked)", "Recorded value": "2.22 µg/mL"}
{"Compound": "O=C(NC[C@@H]1CN2C(=O)C[C@H]2O1)c1cc(F)c(F)cc1F (racemic)", "Recorded value": "0.535 µg/mL"}
